Reported Relative Inhibition of IL-4 induced TF-1 Proliferation IC50 values are given for each entry in this list.
# ASSAYED SYSTEM: T1, hIL-4Rα on cells (human, UniProt P24394 26-825)
# T1 sequence: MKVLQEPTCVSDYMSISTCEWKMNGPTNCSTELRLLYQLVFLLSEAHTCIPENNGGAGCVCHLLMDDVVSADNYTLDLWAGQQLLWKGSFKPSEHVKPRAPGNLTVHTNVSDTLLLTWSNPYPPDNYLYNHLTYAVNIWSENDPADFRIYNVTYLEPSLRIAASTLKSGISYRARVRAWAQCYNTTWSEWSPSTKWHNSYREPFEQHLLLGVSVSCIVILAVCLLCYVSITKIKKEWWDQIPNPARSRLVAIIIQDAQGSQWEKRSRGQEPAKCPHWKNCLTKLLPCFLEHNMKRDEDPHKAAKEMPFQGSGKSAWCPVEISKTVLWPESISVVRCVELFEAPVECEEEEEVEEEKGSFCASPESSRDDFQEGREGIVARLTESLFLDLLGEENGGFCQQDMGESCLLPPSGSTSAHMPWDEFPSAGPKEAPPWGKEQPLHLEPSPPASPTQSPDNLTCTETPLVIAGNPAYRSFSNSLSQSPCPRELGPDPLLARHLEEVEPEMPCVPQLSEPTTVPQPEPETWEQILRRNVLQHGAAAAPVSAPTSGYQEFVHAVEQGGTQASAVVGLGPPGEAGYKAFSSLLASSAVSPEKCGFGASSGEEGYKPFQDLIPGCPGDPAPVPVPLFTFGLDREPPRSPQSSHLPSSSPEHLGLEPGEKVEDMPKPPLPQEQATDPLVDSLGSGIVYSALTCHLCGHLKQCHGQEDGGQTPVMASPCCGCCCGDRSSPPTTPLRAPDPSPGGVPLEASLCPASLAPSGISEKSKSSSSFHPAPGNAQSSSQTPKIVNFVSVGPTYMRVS
# METHOD: cell-based or functional assay

Solved cases below.
# BINDER, RESULT
measured = [
    ("Construct 27 (mAb435) (antibody, IgG4, V domains shown, VH/VL only) VH: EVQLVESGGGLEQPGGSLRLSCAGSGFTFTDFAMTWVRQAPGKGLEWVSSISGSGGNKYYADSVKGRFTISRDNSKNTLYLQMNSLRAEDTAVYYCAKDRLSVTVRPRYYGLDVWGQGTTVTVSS VL: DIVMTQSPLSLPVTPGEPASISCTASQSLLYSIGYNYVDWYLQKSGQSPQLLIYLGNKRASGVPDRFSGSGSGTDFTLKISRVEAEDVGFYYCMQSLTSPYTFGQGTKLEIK", "0.962 relative to dupilumab"),
    ("Construct 3 (mAb412) (antibody, IgG4, V domains shown, VH/VL only) VH: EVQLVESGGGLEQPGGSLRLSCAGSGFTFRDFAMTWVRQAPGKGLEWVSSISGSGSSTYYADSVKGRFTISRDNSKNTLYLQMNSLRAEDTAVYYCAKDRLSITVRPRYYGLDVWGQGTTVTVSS VL: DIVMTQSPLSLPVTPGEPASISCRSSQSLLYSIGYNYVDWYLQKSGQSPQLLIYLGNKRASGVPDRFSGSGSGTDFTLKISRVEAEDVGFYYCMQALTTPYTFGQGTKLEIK", "0.514 relative to dupilumab"),
]

Read the next record carefully.
Need Relative Inhibition of IL-4 induced TF-1 Proliferation IC50 of Construct 30 (mAb439) (antibody, IgG4, V domains shown, VH/VL only) VH: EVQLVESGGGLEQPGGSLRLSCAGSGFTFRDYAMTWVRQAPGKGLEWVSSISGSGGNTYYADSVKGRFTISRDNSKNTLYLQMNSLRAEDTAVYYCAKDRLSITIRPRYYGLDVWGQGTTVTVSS VL: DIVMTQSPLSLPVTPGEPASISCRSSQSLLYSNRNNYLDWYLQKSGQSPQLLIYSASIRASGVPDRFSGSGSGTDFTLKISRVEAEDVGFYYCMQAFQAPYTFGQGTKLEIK , thanks.
0.387 relative to dupilumab
